Tested on: MCF7 breast
ASSAY_PROCEDURE: NCI-60 one-dose screen, 48 h (100 = growth as untreated, 0 = no growth, -100 = all killed)
CONDITION_NOTES: 10 µM
About 83,000 compounds went through this panel and 20% of them were active in at least one assay; those are over-represented in the sample as a whole. Calls of active or inactive are those of the source. The calls were made as follows: active = growth percent below 10; inactive = the rest.
Answer each item with its documented growth.

Record OCCNc1nc(Nc2ccc(C3=NN(c4cc(Cl)cc(Cl)c4)C(c4ccc(C(F)(F)F)cc4)C3)cc2)nc(N2CCOCC2)n1 (stereo unspecified) has MCF7 breast growth equal to 30.1% (inactive)

Record COc1ccc(C(O)(CCC(C)C)C(CN2CCOCC2)c2ccc(Cl)cc2)cc1 (stereo unspecified) has MCF7 breast growth equal to 55.6% (inactive)

Record O=c1oc2ccc(Cl)cc2c(=O)n1-c1ccc(I)cc1F has MCF7 breast growth equal to 3.96% (active)

Record Nc1nc(Nc2cccc(F)c2)nc2ccccc12 has MCF7 breast growth equal to 41.5% (inactive)

Record Cc1ccc(Cn2c(N3CCC(C(=O)NCc4cccs4)CC3)nc3ccccc32)cc1 has MCF7 breast growth equal to 95.2% (inactive)

Record O=C(Nc1ccc(F)cc1F)c1cc(I)ccc1O has MCF7 breast growth equal to 5.52% (active)

Record O=c1[nH]nnc2c1ncn2C1OC(CO)C(O)C1O (stereo unspecified) has MCF7 breast growth equal to 63.9% (inactive)

Record CCOc1ccc2nc(C)cc(Nc3ccc(Br)cc3)c2c1 has MCF7 breast growth equal to 76.6% (inactive)

Record COc1cc(/C(C#N)=C/c2nc3c(N4CCOCC4)nc(Cl)nc3n2C)cc(OC)c1OC has MCF7 breast growth equal to 6.74% (active)

Record COc1cc2nc(-c3cccc4cccnc34)nc(NC3CCN(Cc4ccccc4)CC3)c2cc1OC has MCF7 breast growth equal to -77.2% (active)

Record O=c1oc2ccc(F)cc2c(=O)n1-c1ccc(Br)cc1F has MCF7 breast growth equal to -3.48% (active)
